# maps each entry to its EC50
ASSAY SYSTEM: UniProt:P08659
Sequence (P08659 whole entry): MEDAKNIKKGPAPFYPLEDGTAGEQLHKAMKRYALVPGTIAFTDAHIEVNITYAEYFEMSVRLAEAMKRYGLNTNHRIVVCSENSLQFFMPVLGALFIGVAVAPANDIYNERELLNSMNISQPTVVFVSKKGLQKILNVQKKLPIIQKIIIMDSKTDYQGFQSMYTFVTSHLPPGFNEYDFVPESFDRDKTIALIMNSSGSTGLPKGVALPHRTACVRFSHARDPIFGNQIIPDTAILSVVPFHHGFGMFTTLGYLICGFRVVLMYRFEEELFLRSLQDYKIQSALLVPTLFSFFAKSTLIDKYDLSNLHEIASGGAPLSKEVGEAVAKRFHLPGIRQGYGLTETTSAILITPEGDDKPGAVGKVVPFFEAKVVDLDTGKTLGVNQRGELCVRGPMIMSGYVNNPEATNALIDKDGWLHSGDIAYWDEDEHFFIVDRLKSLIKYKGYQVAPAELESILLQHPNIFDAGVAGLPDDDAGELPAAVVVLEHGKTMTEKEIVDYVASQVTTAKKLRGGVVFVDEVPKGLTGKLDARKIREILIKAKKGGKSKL
METHOD SUMMARY: inhibition of purified Photinus pyralis luciferase – biochemical, luminescence, dose response (AID 1891)
Activity calls are given as the source filed them. No stated cut-off is given here; in the data, actives have a measured EC50 and inactives only a lower limit.

See these solved cases before continuing.
| COMPOUND | ASSAY SYSTEM | EC50 |
| --- | --- | --- |
| COc1ccc2c(c1)sc1nc(-c3ccccc3)cn12 | UniProt:P08659 | 0.669 µM (active) |
| O=C(Nc1cccc(N2CCCC2)c1)c1cccs1 | UniProt:P08659 | > 112 µM (not active) |
| Cc1ccc(C2CC(c3ccccc3)=NN2C(=O)CSc2nnc(-c3ccc(Cl)cc3)o2)o1 (stereo unspecified) | UniProt:P08659 | > 112 µM (not active) |
| CCc1ccc(-c2cc(C)no2)cc1S(=O)(=O)N1CCN(c2ccccc2OC)CC1 | UniProt:P08659 | > 112 µM (not active) |
| O=C(c1ccccc1)c1ccc2[nH]c(-c3ccc(NC(=O)c4ccccc4F)cc3)nc2c1 | UniProt:P08659 | > 112 µM (not active) |

Turning now to a further compound:
Could you tell me which EC50 is on file for C/C(=N\NC(=O)c1ccc(NS(=O)(=O)c2cccs2)cc1)c1ccc2ccccc2c1 ?
> 112 µM (not active)
